Target: Voltage-gated inwardly rectifying potassium channel KCNH2 (Homo sapiens) (UniProt Q12809)
Sequence (Q12809 whole entry, looked up): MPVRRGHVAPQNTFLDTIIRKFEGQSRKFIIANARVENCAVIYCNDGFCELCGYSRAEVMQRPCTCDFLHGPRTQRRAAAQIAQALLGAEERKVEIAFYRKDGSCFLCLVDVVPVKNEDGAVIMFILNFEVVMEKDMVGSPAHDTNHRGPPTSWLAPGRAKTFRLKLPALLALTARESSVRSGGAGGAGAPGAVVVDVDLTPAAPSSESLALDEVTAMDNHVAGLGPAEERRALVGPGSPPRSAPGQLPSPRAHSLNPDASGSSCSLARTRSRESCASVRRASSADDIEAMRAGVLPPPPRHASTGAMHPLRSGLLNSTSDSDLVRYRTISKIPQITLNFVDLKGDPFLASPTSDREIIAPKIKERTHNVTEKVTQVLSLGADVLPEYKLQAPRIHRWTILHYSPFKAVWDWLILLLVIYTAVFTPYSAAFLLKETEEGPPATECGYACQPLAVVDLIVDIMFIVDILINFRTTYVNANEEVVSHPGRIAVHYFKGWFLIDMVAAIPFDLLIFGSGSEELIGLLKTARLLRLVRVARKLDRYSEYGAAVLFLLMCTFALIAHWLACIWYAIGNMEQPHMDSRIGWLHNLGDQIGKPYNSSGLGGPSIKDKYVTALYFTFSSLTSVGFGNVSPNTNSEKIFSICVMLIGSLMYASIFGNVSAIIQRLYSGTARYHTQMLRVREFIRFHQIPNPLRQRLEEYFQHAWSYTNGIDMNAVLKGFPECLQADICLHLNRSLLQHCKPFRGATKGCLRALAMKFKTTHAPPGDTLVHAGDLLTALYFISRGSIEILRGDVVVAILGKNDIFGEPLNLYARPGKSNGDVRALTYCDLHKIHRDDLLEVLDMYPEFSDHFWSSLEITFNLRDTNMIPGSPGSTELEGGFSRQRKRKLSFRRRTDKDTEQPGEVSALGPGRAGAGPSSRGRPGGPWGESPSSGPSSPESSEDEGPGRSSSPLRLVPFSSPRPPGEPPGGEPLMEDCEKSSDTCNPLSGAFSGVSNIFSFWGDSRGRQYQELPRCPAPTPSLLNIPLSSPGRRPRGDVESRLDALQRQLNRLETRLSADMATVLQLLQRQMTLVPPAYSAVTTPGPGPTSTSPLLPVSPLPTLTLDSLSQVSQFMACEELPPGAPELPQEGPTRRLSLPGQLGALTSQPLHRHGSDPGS
Test: hERG protection against dofetilide inhibition, confirmation, cell-based, thallium flux, duplicate retest, dofetilide IC70 (AID 1835)
Conditions: hERG cell line, FluxOR thallium flux, dofetilide-blocked; at 10 µM; active compounds read high
In all, about 2,400 compounds went through this assay and about 750 (31%) were called active. Some of the results follow.
Classify as follows. Reported activity increase over dofetilide control, less the hit threshold greater than or equal to -10%: Yes. Reported activity increase over dofetilide control, less the hit threshold below: No.

>>> answer_label("S=C(N/N=C/c1ccc(Cl)cc1)N1CCOCC1")
"No"

Q) Could you tell me if the measured activity increase over dofetilide control, less the hit threshold of CCOC(=O)C1=C(O)/C(=C/c2ccc(OCC(=O)O)c(OC)c2)SC1=Nc1ccc(OCC)cc1 reaches -10% or more?
A) Yes

Q) Can you handle CC(NC(=O)COC(=O)C1CCC1)c1ccccc1 (stereo unspecified) next?
A) Yes

Q) Can you handle C=CCn1c(=S)[nH]c2sc3c(c2c1=O)CCC3 next?
A) Yes

Q) Can you handle CCOC(=O)c1c(NS(=O)(=O)c2ccc(Br)cc2)sc2c1CCC2 next?
A) Yes

###

Biological target: Voltage-gated inwardly rectifying potassium channel KCNH2 (Homo sapiens) (UniProt Q12809)
Experiment: hERG protection against dofetilide inhibition, confirmation, cell-based, thallium flux, duplicate retest, dofetilide IC70 (AID 1835)
Settings: hERG cell line, FluxOR thallium flux, dofetilide-blocked; at 10 µM
In all, about 2,400 compounds went through this assay and about 750 (31%) were called active.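 Rule for the calls: active = median signal gain over dofetilide-blocked control wells reaching their mean plus 3 SD, so readout 1 at least 0; inactive = the rest.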 Some of the results follow.
Just give me one of these, please: active, inactive

>>> answer_label("COC(=O)c1ccc(Cn2cnc3c(cnn3-c3ccc(Cl)cc3)c2=O)o1")
"inactive"
>>> answer_label("Cc1ccc2[nH]c(C(=O)O)c(-c3ccccc3)c2c1")
"inactive"
>>> answer_label("Oc1c(N=NC(=S)Nc2ccccc2F)c2ccccc2n1Cc1ccccc1Cl")
"inactive"
>>> answer_label("Cc1sc2ncnc(SCC(=O)NC(=O)c3cccn3C)c2c1C")
"active"

Q) What call does the record list for CCC(C)NC(=O)Cn1nc(C(F)(F)F)c2c1CCCC2 (configuration not stated) ?
A) inactive

Q) Can you handle Oc1c(N=NC(=S)Nc2ccccc2F)c2ccccc2n1Cc1ccccc1F next?
A) active

Q) Can you handle O=c1c(-c2cccc3ccccc23)[n+]([O-])c2ccccc2n1O next?
A) active

Q) Can you handle COC(=O)c1ccc(CSc2ncnc3sc(C)c(C)c23)o1 next?
A) active

Q) Can you handle O=S(=O)(Nc1ccc(Cc2ccncc2)cc1)c1ccc(Cl)c(Cl)c1 next?
A) inactive

Q) Can you handle N#Cc1cc(-c2ccccc2)nnc1Oc1ccccc1 next?
A) inactive

###

Target: Voltage-gated inwardly rectifying potassium channel KCNH2 (Homo sapiens) (UniProt Q12809)
Test: hERG protection against dofetilide inhibition, confirmation, cell-based, thallium flux, duplicate retest, dofetilide IC70 (AID 1835)
Settings: hERG cell line, FluxOR thallium flux, dofetilide-blocked; at 10 µM; active compounds read high
The whole screen tested about 2,400 compounds, of which about 750 (31%) were called active. The list shows a part of the results.
MEASUREMENT NAME: activity increase over dofetilide control, less the hit threshold (%)
State just the number; it will be interpreted in %.

Below, 2 molecules whose answers are already recorded.
>>> observed_result("Cc1nc(NC(=O)c2ccco2)sc1C(=O)O")
-10
>>> observed_result("Cc1cccc(OCC(=O)NC(=S)N2CCCc3ccccc32)c1")
-10

Field: next molecule
Q) Fill in the blank: the reported activity increase over dofetilide control, less the hit threshold of COC(=O)c1ccc(C(=O)NC(=S)Nc2nc3c(s2)CC(C)CC3)cc1 (stereo not drawn) is ____.
A) -10
